experiment: Preclinical pharmacokinetic study in rats; assay type: in vivo, Sprague-Dawley (SD) rats; conditions: Sprague-Dawley, rat; male SD rats, oral gavage (p.o.) 10 mg/kg, plasma
Metric Name: Tmax (h)

>>> assay_result("C[C@H]1CCN(C2CC2)c2nc3c(F)cc(-c4nc(N[C@@H]5CCOC[C@H]5O)ncc4Cl)cc3n21 [TA-4]")
1
>>> assay_result("C[C@H]1CCN(c2ccccc2F)c2nc3c(F)cc(-c4nc(N[C@@H]5CCOC[C@H]5O)ncc4Cl)cc3n21 [TC-12]")
1
>>> assay_result("C[C@H]1CCN(C)c2nc3c(F)cc(-c4nc(Nc5ccncc5)ncc4Cl)cc3n21 [TB-137]")
0.83
>>> assay_result("CC(C)n1c(N2CCOCC2)nc2c(F)cc(-c3nc(N[C@@H]4CCOC[C@H]4O)ncc3Cl)cc21 [TB-12]")
1.5
>>> assay_result("C[C@H]1CCN(C)c2nc3c(F)cc(-c4nc(N[C@@H]5CCOC[C@H]5O)ncc4Cl)cc3n21 [TB-92]")
0.5
>>> assay_result("CCS(=O)(=O)N1CCC(Nc2ncc(Cl)c(-c3cc(F)c4nc(N5CCOC5=O)n(C(C)C)c4c3)n2)CC1 [TB-31]")
4
>>> assay_result("CCN1CCCn2c1nc1c(F)cc(-c3nc(N[C@@H]4CCOC[C@H]4O)ncc3Cl)cc12 [TB-109]")
0.5

---

Below, each entry is listed alongside its reported pIC50.
molecular target: CDK4/CycD1 (Homo sapiens, UniProt P11802); assay: Kinase activity assay (MSA, EZ Reader) against CDK4
Sequence (P11802 whole entry): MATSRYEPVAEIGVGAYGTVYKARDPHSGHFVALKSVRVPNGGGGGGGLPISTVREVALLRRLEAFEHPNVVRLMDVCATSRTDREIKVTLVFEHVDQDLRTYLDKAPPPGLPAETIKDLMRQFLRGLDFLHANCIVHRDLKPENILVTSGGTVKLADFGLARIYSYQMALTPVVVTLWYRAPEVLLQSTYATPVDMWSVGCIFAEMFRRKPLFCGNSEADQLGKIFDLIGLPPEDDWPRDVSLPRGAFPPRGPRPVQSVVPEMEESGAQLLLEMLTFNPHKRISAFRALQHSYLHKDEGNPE
pIC50: −log10 of the molar value.
Metric Name: pIC50

>>> assay_result("CC(C)n1c(N(C)C)nc2c(F)cc(-c3nc(Nc4ccc(N5CCNCC5)cn4)ncc3Cl)cc21 [TB-18]")
8.58
>>> assay_result("C[C@H]1CCN(c2ccc(F)cc2F)c2nc3c(F)cc(-c4nc(N[C@@H]5CCOC[C@H]5O)ncc4Cl)cc3n21 [TC-13]")
8.48
>>> assay_result("C[C@H]1CCN(CC#N)c2nc3c(F)cc(-c4nc(N[C@@H]5CCOC[C@H]5O)ncc4Cl)cc3n21 [TC-2]")
8.35
>>> assay_result("CC(C)n1c(N(C)C)nc2c(F)cc(-c3nc(NC4CCOCC4)ncc3Cl)cc21 [TB-2]")
7.75
>>> assay_result("CC(C)n1c(N2CC[C@H](O)C2)nc2c(F)cc(-c3nc(N[C@@H]4CCOC[C@H]4O)ncc3Cl)cc21 [TB-6]")
7.97
>>> assay_result("C[C@H]1CCN(CC(C)(C)O)c2nc3c(F)cc(-c4nc(N[C@@H]5CCOC[C@H]5O)ncc4Cl)cc3n21 [TC-7]")
8.43
>>> assay_result("CC1(C)Cn2c(nc3c(F)cc(-c4nc(N[C@@H]5CCOC[C@H]5O)ncc4Cl)cc32)S(=O)(=O)C1 [TB-148]")
7.15
>>> assay_result("C[C@H]1CCN(C)c2nc3c(F)cc(-c4nc(Nc5ccncc5)ncc4Cl)cc3n21 [TB-137]")
7.55
>>> assay_result("CC(C)n1c(N(C)C)nc2c(F)cc(-c3nc(N[C@@H]4CCOC[C@H]4O)ncc3Cl)cc21 [TB-1]")
8.43
>>> assay_result("CC(C)n1c(N2CCCOC2=O)nc2c(F)cc(-c3nc(N[C@@H]4CCOC[C@H]4O)ncc3Cl)cc21 [TB-25]")
7.36
>>> assay_result("C[C@H]1CCN(C)c2nc3c(F)cc(-c4cc(N[C@@H]5CCOC[C@H]5O)ncc4Cl)cc3n21 [TB-149]")
8.28
>>> assay_result("COc1cc(N2CCNCC2)ccc1Nc1ncc(Cl)c(-c2cc(F)c3nc(N(C)C)n(C(C)C)c3c2)n1 [TB-17]")
7.47

---

assay: Preclinical pharmacokinetic study in rats; type: in vivo, Sprague-Dawley (SD) rats; details: Sprague-Dawley, rat; male SD rats, oral gavage (p.o.) 10 mg/kg, plasma
Metric Name: AUC(0-t) (ng·h/mL)

>>> assay_result("C[C@H]1CCN(C)c2nc3c(F)cc(-c4nc(N[C@@H]5CCOC[C@H]5O)ncc4Cl)cc3n21 [TB-92]")
5020
>>> assay_result("CC(C)n1c(N2CCOCC2)nc2c(F)cc(-c3nc(N[C@@H]4CCOC[C@H]4O)ncc3Cl)cc21 [TB-12]")
4500
>>> assay_result("CC(C)n1c(N2CCOC2=O)nc2c(F)cc(-c3nc(N[C@@H]4CCOC[C@H]4O)ncc3C(F)(F)F)cc21 [TB-27]")
11500
>>> assay_result("CC(C)n1c(N2CCOC2=O)nc2c(F)cc(-c3nc(N[C@@H]4CCOC[C@H]4O)ncc3Cl)cc21 [TB-24]")
4500
>>> assay_result("C[C@H]1CCN(CC#N)c2nc3c(F)cc(-c4nc(N[C@@H]5CCOC[C@H]5O)ncc4Cl)cc3n21 [TC-2]")
1240
>>> assay_result("CCS(=O)(=O)N1CCC(Nc2ncc(Cl)c(-c3cc(F)c4nc(N5CCOC5=O)n(C(C)C)c4c3)n2)CC1 [TB-31]")
4890
>>> assay_result("C[C@H]1CCN(C)c2nc3c(F)cc(-c4cc(N[C@@H]5CCOC[C@H]5O)ncc4Cl)cc3n21 [TB-149]")
25400
>>> assay_result("CC(C)N1CCCn2c1nc1c(F)cc(-c3nc(N[C@@H]4CCOC[C@H]4O)ncc3Cl)cc12 [TB-108]")
1370
>>> assay_result("C[C@H]1CCN(C2CC2)c2nc3c(F)cc(-c4nc(N[C@@H]5CCOC[C@H]5O)ncc4Cl)cc3n21 [TA-4]")
16200
>>> assay_result("C[C@H]1CCN(c2ccccc2F)c2nc3c(F)cc(-c4nc(N[C@@H]5CCOC[C@H]5O)ncc4Cl)cc3n21 [TC-12]")
1290
>>> assay_result("C[C@H]1CCN(C)c2nc3c(F)cc(-c4nc(Nc5ccncc5)ncc4Cl)cc3n21 [TB-137]")
3670
>>> assay_result("C[C@H]1CCN(c2ccccc2)c2nc3c(F)cc(-c4nc(N[C@@H]5CCOC[C@H]5O)ncc4Cl)cc3n21 [TA-33]")
2170

---

Catalogue of molecules with associated pIC50
target: CDK6/CyclinD3 (Homo sapiens, UniProt Q00534); test: Kinase activity assay (MSA, EZ Reader) against CDK6; conditions: CDK6/CyclinD3 5.00 nM, ATP 350 µM, FL-Peptide34, 10mM MgCl2
Sequence (Q00534 whole entry): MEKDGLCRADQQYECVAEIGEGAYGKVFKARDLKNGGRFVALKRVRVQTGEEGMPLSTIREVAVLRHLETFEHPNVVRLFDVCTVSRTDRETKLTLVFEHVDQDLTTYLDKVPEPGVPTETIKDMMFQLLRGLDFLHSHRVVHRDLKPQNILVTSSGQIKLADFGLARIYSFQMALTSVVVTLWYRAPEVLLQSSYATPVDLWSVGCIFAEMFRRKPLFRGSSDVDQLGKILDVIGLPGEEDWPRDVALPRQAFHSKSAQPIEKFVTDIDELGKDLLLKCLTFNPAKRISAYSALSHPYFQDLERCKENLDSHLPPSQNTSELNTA
Sequence (P30281 whole entry partner): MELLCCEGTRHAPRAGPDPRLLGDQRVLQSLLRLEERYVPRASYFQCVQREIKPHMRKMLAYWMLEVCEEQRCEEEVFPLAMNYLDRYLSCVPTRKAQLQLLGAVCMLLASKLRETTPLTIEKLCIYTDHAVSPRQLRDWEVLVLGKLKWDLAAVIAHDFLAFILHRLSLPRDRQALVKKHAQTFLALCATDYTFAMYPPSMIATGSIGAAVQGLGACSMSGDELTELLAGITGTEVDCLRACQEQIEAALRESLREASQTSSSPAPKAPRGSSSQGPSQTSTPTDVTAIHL
pIC50: −log10 of the molar value.
Metric Name: pIC50

>>> assay_result("CC(C)n1c(N2CCCOC2=O)nc2c(F)cc(-c3nc(NC4CCN(S(C)(=O)=O)CC4)ncc3Cl)cc21 [TB-142]")
6.44
>>> assay_result("C[C@H]1CCN(CC(C)(C)O)c2nc3c(F)cc(-c4nc(N[C@@H]5CCOC[C@H]5O)ncc4Cl)cc3n21 [TC-7]")
6.81
>>> assay_result("CN1CCCn2c1nc1c(F)cc(-c3nc(N[C@@H]4CCOC[C@H]4O)ncc3Cl)cc12 [TB-40]")
6.64
>>> assay_result("CC(C)n1c(N(C)C)nc2c(F)cc(-c3nc(NC4CCOCC4)ncc3Cl)cc21 [TB-2]")
6.50
>>> assay_result("CC1(C)Cn2c(nc3c(F)cc(-c4nc(N[C@@H]5CCOC[C@H]5O)ncc4Cl)cc32)S(=O)(=O)C1 [TB-148]")
6.65
>>> assay_result("C[C@H]1CCN(c2ccccc2)c2nc3c(F)cc(-c4nc(N[C@@H]5CCOC[C@H]5O)ncc4Cl)cc3n21 [TA-33]")
7.03

---

target: CDK4/CycD1 (Homo sapiens, UniProt P11802); experiment: Kinase activity assay (MSA, EZ Reader) against CDK4
Metric Name: IC50 (nM)

>>> assay_result("C[C@H]1CCN(c2ccccc2)c2nc3c(F)cc(-c4nc(N[C@@H]5CCOC[C@H]5O)ncc4Cl)cc3n21")
3.4
>>> assay_result("C[C@H]1CCN(c2ccccc2F)c2nc3c(F)cc(-c4nc(N[C@@H]5CCOC[C@H]5O)ncc4Cl)cc3n21")
1.9
>>> assay_result("CN1CCCn2c1nc1c(F)cc(-c3nc(Nc4ccc(C#N)cc4)ncc3Cl)cc12")
17.9
>>> assay_result("CC(C)n1c(N2CCOC2=O)nc2c(F)cc(-c3nc(NC4CCN(S(C)(=O)=O)CC4)ncc3F)cc21")
8.57
